Please provide measured melting point for the entries that follow.

Fill in the blank: the reported melting point of O=C(O)c1ccc(C(c2cc(F)ccc2F)S(=O)(=O)c2ccc(Cl)cc2)nc1 (stereo not given) is ____. > 230 °C

Proceed to CNC(=O)c1cnc(OCC(O)CNC(C)C)c(Cl)c1 (stereo not given) 130 to 132 °C

Continue with `Cn1cnc2nc(NC(=O)c3ccccc3)nn2c1=S` 273 to 276 °C

Repeat for the following compound: `C=CCCn1cnc2c1c(=O)n(CCCC)c(=O)n2CCCC` 41 to 42 °C

Now try Cc1c(C)c2c(c(C)c1OCc1ccccc1)CCC(C)(CN1CCN(CCOc3ccc(C=C4SC(=O)NC4=O)cc3)CC1)O2 (racemic) . 192 to 194 °C

Moving on to `Cc1nc(NC(=O)c2cnn3c(C(F)(F)F)cc(-c4ccc(C(F)(F)F)cc4)nc23)sc1S(=O)(=O)NC(CO)CO` 215 °C

Same question, `CCCCCCOc1cccc(C[C@H](NC(C)=O)[C@H](O)CNCc2cccc(CC)c2)c1` this time 102 to 105 °C

Now try `COCCOc1cc2ncnc(NC3=CC(=O)C(Oc4ccc(C)cc4)=CC3=O)c2cc1OC` . 171 to 172 °C

Try the compound OC(CNCCCCCCOCCCCc1ccccc1)c1ccc2c(n1)COC(c1ccccc1)O2 (stereo not given) 67 to 73 °C

And then `CN1CCC(c2c[nH]c3ccc(NC(=O)c4cccc(Cl)c4)nc23)CC1` , what is it? 110 to 111 °C

Field entry: `CC(=O)Nc1ccc(OC(=O)COCc2ccccc2)cc1` 106 to 109 °C

Now consider `N#Cc1cc([N+](=O)[O-])ccc1OCc1ccc2ccccc2n1` and answer again. 161 to 162 °C

Okay, and `C=CCONC(=O)Cc1ccc(OC)cc1` ? 100 to 101 °C

Now try `COc1ccc2c(ccn2-c2cccc(C#N)c2)c1` . 113 to 115 °C

// next record `Cn1c(CNCC2(C)COC2)cc2cc(NC(=O)c3ccc(OCC4CC4)cc3)ccc21` 154 to 155 °C

Next record, please: O=c1[nH]c2ncc(-c3ccc(O)cc3)nc2n1CC1CCCOC1 (stereo not given) 271 to 272 °C

Thanks! And `COc1ccc(-c2c(Cl)ncnc2NS(=O)(=O)c2ccc(OC)cc2)cc1` ? 165 to 167 °C

Next: `COc1ccc(S(=O)(=O)Nc2ccccc2/C=C/c2ccncc2C)cc1` 183 to 185 °C

Record: `Cc1oc2c(C)cc(C(=O)O)cc2c1C` 235 to 237 °C

Could you do the same for `Cc1cccc(C)c1N(CCl)C(=O)c1ccccc1` , please? 133 °C

###

Would you mind telling me the reported melting point of each entry?

May I ask what melting point has been recorded for `CCCC(=O)OCn1cc(F)c(=O)[nH]c1=O` ? 96 to 98 °C

Now the same for `c1ccc(Oc2noc(-c3ccccc3)n2)cc1` 62 °C

Another: CNCc1cccc(-c2ccc(CC3SC(=O)NC3=O)c(C)c2)c1 (stereo unspecified) 135 °C

Input `Cc1ccn(C)c(=S)n1` 138 to 140 °C

Try the molecule `NC(=O)[C@H](CO)NC(=O)c1cccc(NS(=O)(=O)CC2CN(C(c3ccc(Cl)cc3)c3ccc(Cl)cc3)C2)c1` 245 to 247 °C

Also need `N#CCc1c[nH]c2ccc(CS(N)(=O)=O)cc12` , thanks. 184 to 185 °C

How about this molecule: `CC(C)=CCn1c(-c2c(F)cccc2F)nc2c(C)cccc21` 78 to 79 °C

And COC1C=C(C)C(=O)CC(C)(C)C1OC(=O)c1ccc([N+](=O)[O-])c([N+](=O)[O-])c1 (stereo unspecified) ? 103 to 104 °C

Moving on to `COc1ccccc1Oc1c(NS(=O)(=O)c2cc(Cl)sc2Cl)nc(-c2ncccn2)nc1OCCOC(=O)Nc1ccccn1` 194 to 197 °C

Same question for `Cc1cn(-c2cc(NC(=O)c3ccc(C)c(C#Cc4ccc(NC(C)C)nn4)c3)cc(C(F)(F)F)c2)cn1` please. 192 to 194 °C

Next molecule up: CCOC(=O)NN1CCc2ccccc2C(Oc2ccc(C(F)(F)F)cc2)C1 (stereo unspecified) 156 to 157 °C

Now consider `O=C1CCCN1S(=O)(=O)c1ccc2ccccc2c1` . 118 to 120 °C

Proceed to CC1Oc2ccc(Cl)cc2N(CC(O)CO)C1=O (stereo unspecified) 88 °C

Also need `O=C(c1ccccc1)c1cnn2c(-c3cccnc3)ccnc12` , thanks. 202 to 203 °C

Moving on to `CC(C)NC1=NS(=O)(=O)c2ccc(CC#N)cc2N1` 195 to 203 °C

Item: `CC(C)C[C@@H](OC(=O)c1cc(Cl)ccn1)C(=O)O` 120 to 122 °C

Same question, `CCCCn1sc2nc3ccccc3n2c1=O` this time 153 to 154 °C

Same thing, different molecule: `N#Cc1cccc(C2=Nc3ccc(C#Cc4ccc(OC(F)(F)F)cc4)cc3NC(=O)C2)c1` 239 to 241 °C

Try the molecule `CC(C)(C)OC(=O)N1CCc2c(n(CCCc3ccccc3)c3ccc(Cl)c(Cl)c23)CC1` 114 to 116 °C

# iterate: `COc1cccc(C2=CC(=O)N(C)C2=O)c1` 138 to 146 °C

Also check `CCCCC[C@H]1CC[C@H](c2ccc(C#Cc3ccc(OC(F)F)cc3)cc2)CC1` 62 °C

The reported measurements were obtained from a melting point compilation (Tetko et al.; mined from patent text by program, amines drawn as free bases though some values may be those of a salt).
